Target: T1, IL-18 receptors on HEK-Blue IL-18 reporter cells (UniProt Q13478 19-541; O95256 20-599, limits assumed); note: unit not given here
T1 sequence (looked up) 1: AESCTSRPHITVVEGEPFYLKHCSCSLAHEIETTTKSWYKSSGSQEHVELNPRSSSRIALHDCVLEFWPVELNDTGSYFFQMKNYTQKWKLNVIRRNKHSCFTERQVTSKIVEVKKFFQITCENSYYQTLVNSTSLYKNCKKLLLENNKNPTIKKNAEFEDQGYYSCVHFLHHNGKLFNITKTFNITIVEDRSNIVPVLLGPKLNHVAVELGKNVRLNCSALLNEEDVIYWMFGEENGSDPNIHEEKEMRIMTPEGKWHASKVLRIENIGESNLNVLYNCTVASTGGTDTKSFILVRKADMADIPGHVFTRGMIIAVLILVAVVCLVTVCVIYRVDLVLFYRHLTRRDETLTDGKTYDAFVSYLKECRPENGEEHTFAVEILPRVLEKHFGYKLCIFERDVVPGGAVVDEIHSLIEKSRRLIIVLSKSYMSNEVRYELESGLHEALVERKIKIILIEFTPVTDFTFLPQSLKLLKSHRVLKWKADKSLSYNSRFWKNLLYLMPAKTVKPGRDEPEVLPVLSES
T1 sequence (looked up) 2: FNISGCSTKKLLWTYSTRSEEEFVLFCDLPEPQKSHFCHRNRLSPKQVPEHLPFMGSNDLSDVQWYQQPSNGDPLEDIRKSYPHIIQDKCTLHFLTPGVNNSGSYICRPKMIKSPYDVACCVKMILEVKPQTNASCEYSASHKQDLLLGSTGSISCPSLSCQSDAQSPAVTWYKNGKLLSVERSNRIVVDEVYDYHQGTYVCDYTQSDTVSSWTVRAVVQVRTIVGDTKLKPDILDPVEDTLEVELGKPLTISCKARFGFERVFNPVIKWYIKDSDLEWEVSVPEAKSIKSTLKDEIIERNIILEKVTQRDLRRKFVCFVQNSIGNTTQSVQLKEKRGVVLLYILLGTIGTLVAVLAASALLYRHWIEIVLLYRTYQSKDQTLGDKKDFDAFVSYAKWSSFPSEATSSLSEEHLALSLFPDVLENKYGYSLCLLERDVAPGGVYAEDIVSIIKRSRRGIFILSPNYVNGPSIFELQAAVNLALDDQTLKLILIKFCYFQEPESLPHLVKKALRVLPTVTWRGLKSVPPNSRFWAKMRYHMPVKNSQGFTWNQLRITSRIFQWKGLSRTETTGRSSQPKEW
Assay: cell-based or functional assay
Threshold 0.1. HEK-Blue activity, No BP, DF-100,000 below it: true. HEK-Blue activity, No BP, DF-100,000 at it or above: false.

# count of solved cases: 4
>>> category("IL-18 variant K53G, S55I, R104K, P107Y (ligand) YFGKLESKLSVIRNLNDQVLFIDQGNRPLFEDMTDSDMRDNAPRTIFIISMYGDIQPRGMAVTISVKSEKISTLSSENKIISFKEMNPPDNIKDTKSDIIFFQKSVYGHDNKMQFESSSYEGYFLASEKERDLFKLILKKEDELGDRSIMFTVQNED")
"true"
>>> category("IL-18 variant S7Y, K53H, S55M (ligand) YFGKLEYKLSVIRNLNDQVLFIDQGNRPLFEDMTDSDMRDNAPRTIFIISMYHDMQPRGMAVTISVKSEKISTLSSENKIISFKEMNPPDNIKDTKSDIIFFQRSVPGHDNKMQFESSSYEGYFLASEKERDLFKLILKKEDELGDRSIMFTVQNED")
"false"
>>> category("IL-18 variant K53D, S55N, H109I (ligand) YFGKLESKLSVIRNLNDQVLFIDQGNRPLFEDMTDSDMRDNAPRTIFIISMYDDNQPRGMAVTISVKSEKISTLSSENKIISFKEMNPPDNIKDTKSDIIFFQRSVPGIDNKMQFESSSYEGYFLASEKERDLFKLILKKEDELGDRSIMFTVQNED")
"false"
>>> category("IL-18 variant K53H, S55Y (ligand) YFGKLESKLSVIRNLNDQVLFIDQGNRPLFEDMTDSDMRDNAPRTIFIISMYHDYQPRGMAVTISVKSEKISTLSSENKIISFKEMNPPDNIKDTKSDIIFFQRSVPGHDNKMQFESSSYEGYFLASEKERDLFKLILKKEDELGDRSIMFTVQNED")
"true"

Q: Just wondering, is HEK-Blue activity, No BP, DF-100,000 of IL-18 variant K53Y, S55Y, Q56H (ligand) YFGKLESKLSVIRNLNDQVLFIDQGNRPLFEDMTDSDMRDNAPRTIFIISMYYDYHPRGMAVTISVKSEKISTLSSENKIISFKEMNPPDNIKDTKSDIIFFQRSVPGHDNKMQFESSSYEGYFLASEKERDLFKLILKKEDELGDRSIMFTVQNED below 0.1?
Result: false

Q: How about this binder: IL-18 variant S36E, D37E, D40R, N41G, K53Y, S55F (ligand) YFGKLESKLSVIRNLNDQVLFIDQGNRPLFEDMTDEEMRRGAPRTIFIISMYYDFQPRGMAVTISVKSEKISTLSSENKIISFKEMNPPDNIKDTKSDIIFFQRSVPGHDNKMQFESSSYEGYFLASEKERDLFKLILKKEDELGDRSIMFTVQNED
Result: false
